# TGT: LAP2, Q96RT1
# Sequence (Q96RT1 other isoform, or with tags, fused parts or gaps): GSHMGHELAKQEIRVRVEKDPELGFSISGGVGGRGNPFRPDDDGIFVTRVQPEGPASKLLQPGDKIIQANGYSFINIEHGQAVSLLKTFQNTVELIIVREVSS
# ASSAY_DETAILS: holdup assay
# Parameters: key: below the threshold = too weak to quantify, mostly under pKd 3.1 to 4
# TEST_CONDITIONS: plain residues with an end cap or a label only (N-terminal biotin on a linker: ado-ado)
ATTRIBUTE_MEASURED: pKd
# print the numeric value only

{"BINDER": "EVEEFPETSV [TRPV3, Q8NET8]", "pKd": 4.93}
{"BINDER": "RRISSLESEV [GRIN2C, Q14957]", "pKd": 4.46}
{"BINDER": "HLRARKSEWV [GJD4, Q96KN9]", "pKd": 4.11}

Asked: Suppose we examine the binder CLREWCDAFL [BANF1, O75531] ; what pKd value has been reported?
Given back: 3.69

Asked: What about this binder? TSQESEDTYL [TBC1D10A, Q9BXI6]
Given back: 3.54

Asked: Then this binder: LRSPRTPSEV [OR10G3, Q8NGC4]
Given back: 3.9

Asked: Could you do the same for SSALYGESDL [ACTN2, P35609] , please?
Given back: 3.96

Asked: Next record, please: YLEPVLSSEL [ATP2A2, P16615]
Given back: 3.53

Asked: Entry KKMPSIESDV [GRIN2A, Q12879] please
Given back: 4.6
